Parameter: CAF (10 minutes/60 minutes) at 10 micromolar: 10 minutes. Scope: all listed entries.
- target-desc: KRAS 4B G12C protein (Homo sapiens, UniProt P01116, G12C)
- Construct: This protein contained 188 amino acids in total, including an N-terminal 6-Histidine tag; made in house; host or cells: E. coli BL21
- experiment-summary: In vitro covalent adduct formation (CAF) assay by LC-MS
- Assay type: binding
- assay-setup: 10 minutes; compound 10 μM, protein 5 μM, 22° C.; percentage of protein bound by the compound
// return numeric value only (unit: %, not printed)

compound | unit-tag | endpoint-value
C=CC(=O)N1CCN(c2nc(OC[C@@H]3CCCN3C)nc3c2CN(Cc2c(F)cccc2Cl)C3)C[C@@H]1CC#N [1-112] | % | 98
C=CC(=O)N1C2CCCC1CN(c1nc(OC[C@@H]3CCCN3C)nc3c1CN(Cc1cc(O)ccc1Cl)C3)C2 [1-149] | % | 0
C#CC[C@H]1CN(c2nc(OC[C@@H]3CCCN3C)nc3c2CN(C2CCc4ccccc42)C3)CCN1C(=O)C=C (stereo partly shown) [1-144] | % | 15
C=C(F)C(=O)N1CCN(c2nc(OC[C@@H]3CCCN3C)nc3c2CN(Cc2c(CC)ccc(O)c2C)C3)C[C@@H]1CC#N [1-253] | % | 93

Fill in: CAF (10 minutes/60 minutes) at 10 micromolar: 10 minutes of C=CC(=O)N1CCN(c2nc(OC[C@@H]3CCCN3C)nc3c2CN(Cc2cc(OC)ccc2C)C3)C[C@@H]1CC#N [1-6] is ___
65

---

- target-desc: KRAS 4B G12C protein (Homo sapiens, UniProt P01116, G12C)
- Construct: This protein contained 188 amino acids in total, including an N-terminal 6-Histidine tag; made in house; host or cells: E. coli BL21
- experiment-summary: In vitro covalent adduct formation (CAF) assay by LC-MS
- Format: binding
- assay-setup: 60 minutes; compound 10 μM, protein 5 μM, 22° C.; percentage of protein bound by the compound
Below: a set of entries, each annotated with reported CAF (10 minutes/60 minutes) at 10 micromolar: 60 minutes.

Worked set:
compound | endpoint-value
C=CC(=O)N1CCN(c2nc(OC[C@@H]3CCCN3C)nc3c2CN(C2CCc4ccccc42)C3)C[C@@H]1CCC(N)=O (stereo partly shown) [1-231] | 1%
C=C(F)C(=O)N1CCN(c2nc(OC[C@@H]3CCCN3C)nc3c2CN(C2CCc4ccccc42)C3)C[C@@H]1CC#N (stereo partly shown) [1-109] | 68%
C=CC(=O)N1CCN(c2nc(OC[C@@H]3CCCN3C)nc3c2CN(C2CCc4ccccc42)C3)C[C@H]1C#N (stereo partly shown) [1-145] | 74%
C=CC(=O)N1CCN(c2nc(OC[C@@H]3CCCN3C)nc3c2CN(C2CCCc4cccc(Cl)c42)C3)C[C@@H]1CC#N (stereo partly shown) [1-72] | 98%

Look up CAF (10 minutes/60 minutes) at 10 micromolar: 60 minutes with KRAS 4B G12C protein (Homo sapiens, UniProt P01116, G12C) for this compound: C=CC(=O)N1CC2CC1CN2c1nc(OC[C@@H]2CCCN2C)nc2c1CN(C1CCc3ccccc31)C2 (stereo partly shown) [1-249]
0%/ 0%

Form entry - test system: KRAS 4B G12C protein (Homo sapiens, UniProt P01116, G12C); read-out: CAF (10 minutes/60 minutes) at 10 micromolar: 60 minutes; compound: C=CC(=O)N1CCN(c2nc(OC[C@@H]3CCCN3C)nc3c2CN(c2cccc4ccccc24)C3)C[C@@H]1CC#N [1-9]
85%

Test system KRAS 4B G12C protein (Homo sapiens, UniProt P01116, G12C); read-out CAF (10 minutes/60 minutes) at 10 micromolar: 60 minutes; what value for C=CC(=O)N1CCN(c2nc(OC[C@@H]3CCCN3C)nc3c2CN(Cc2cc(O)ccc2C)C3)C[C@@H]1CC#N [1-40] ?
98%/ 98%

---

Attribute: CAF (10 minutes/60 minutes) at 10 micromolar: 60 minutes
- target-desc: KRAS 4B G12C protein (Homo sapiens, UniProt P01116, G12C)
- Construct: This protein contained 188 amino acids in total, including an N-terminal 6-Histidine tag; made in house; host or cells: E. coli BL21
- experiment-summary: In vitro covalent adduct formation (CAF) assay by LC-MS
- Format: binding
- assay-setup: 60 minutes; compound 10 μM, protein 5 μM, 22° C.; percentage of protein bound by the compound
Give your result in % as a bare value.

Example cases with answers are listed next.
compound | endpoint-value
C=C(F)C(=O)N1CCN(c2nc(OC[C@@H]3CCCN3C)nc3c2CN(Cc2c(Cl)ccc(O)c2Cl)C3)C[C@@H]1CC#N | 94
C=CC(=O)N1CCN(c2nc(OC[C@@H]3CCCN3C)nc3c2CN(Cc2c(Cl)ccc4ccccc24)C3)C[C@@H]1CC#N | 95
C=CC(=O)N1CCN(c2nc(OC[C@@H]3CCCN3C)nc3c2CN(Cc2cc(C(F)(F)F)ccc2C)C3)C[C@@H]1CC#N | 62

Please turn your attention to the following entry.
Tell me the measured CAF (10 minutes/60 minutes) at 10 micromolar: 60 minutes of C=CC(=O)N1CCN(c2nc(OC[C@@H]3CCCN3CC)nc3c2CN(C2CCc4ccccc42)C3)C[C@@H]1CC#N (stereo partly shown) , please.
82

---

- target-desc: KRAS 4B G12C protein (Homo sapiens, UniProt P01116, G12C)
- Construct: This protein contained 188 amino acids in total, including an N-terminal 6-Histidine tag; made in house; host or cells: E. coli BL21
- experiment-summary: In vitro covalent adduct formation (CAF) assay by LC-MS
- Assay type: binding
- assay-setup: 60 minutes; compound 10 μM, protein 5 μM, 22° C.; percentage of protein bound by the compound
value-type: CAF (10 minutes/60 minutes) at 10 micromolar: 60 minutes (%)
Write the value in % as a bare number.

compound | endpoint-value
C=CC(=O)N1CCN(c2nc(OC)nc3c2CN(Cc2cc(OC)ccc2Cl)C3)C[C@@H]1CC#N | 21
C=CC(=O)N1CCN(c2nc(OC[C@@H]3CCCN3C)nc3c2CN(Cc2cc(O)cc4ccccc24)C3)C[C@@H]1CC#N | 96
C=CC(=O)N1CCN(c2nc(OC[C@@H]3CCCN3C)nc3c2CN(Cc2cc(Cl)ccc2Cl)C3)C[C@@H]1CC#N | 98
C=CC(=O)N1CCN(c2nc(OC[C@@H]3CCCN3C)nc3c2CN(Cc2ccccc2C)C3)C[C@@H]1CC#N | 98
C=CC(=O)N1CCN(c2nc(OC[C@@H]3CCCN3C)nc3c2CN(Cc2ccccc2CCC)C3)C[C@@H]1CC#N | 94
C=C(F)C(=O)N1CCN(c2nc(OC[C@@H]3CCCN3C)nc3c2CN(Cc2cc(Cl)ccc2C(F)(F)F)C3)C[C@@H]1CC#N | 24

Look up CAF (10 minutes/60 minutes) at 10 micromolar: 60 minutes: C=C(F)C(=O)N1CCN(c2nc(OC[C@@H]3CCCN3C)nc3c2CN(C2CCc4ccccc42)C3)C[C@@H]1CC#N (stereo partly drawn) [1-139]
5

Please give the measured CAF (10 minutes/60 minutes) at 10 micromolar: 60 minutes for this compound: C=CC(=O)N1CCN(c2nc(Oc3cccc4ccn(C)c34)nc3c2CN(C2CCc4ccccc42)C3)C[C@@H]1CC#N (stereo partly drawn)
15

---

- target-desc: KRAS 4B G12C protein (Homo sapiens, UniProt P01116, G12C)
- Construct: This protein contained 188 amino acids in total, including an N-terminal 6-Histidine tag; made in house; host or cells: E. coli BL21
- experiment-summary: In vitro covalent adduct formation (CAF) assay by LC-MS
- Format: binding
- assay-setup: 10 minutes; compound 10 μM, protein 5 μM, 22° C.; percentage of protein bound by the compound
value-type: CAF (10 minutes/60 minutes) at 10 micromolar: 10 minutes (%)
Give your result in % as a bare value.

compound | endpoint-value
C=CC(=O)N1CCN(c2nc(Oc3cccnc3C3CC3)nc3c2CN(C2CCc4ccccc42)C3)C[C@@H]1CC#N (some centres unmarked) | 6
C=CC(=O)N1CCN(c2nc(OC[C@@H]3CCCN3C)nc3c2CN(Cc2cc(OC)ccc2Cl)C3)C[C@@H]1CC#N | 90
C=CC(=O)N1CCN(c2nc(OC[C@@H]3CCCN3C)nc3c2CN(C2CC(C)(C)c4ccc(OC)cc42)C3)C[C@@H]1CC#N (some centres unmarked) | 14
C=CC(=O)N1CCN(c2nc(OC[C@@H]3CCCN3CC(C)C)nc3c2CN(C2CCc4ccccc42)C3)C[C@@H]1CC#N (some centres unmarked) | 53
C=CC(=O)N1CCN(c2nc(OC[C@@H]3CCCN3C)nc3c2CN(S(=O)(=O)c2cccc4ccccc24)C3)C[C@@H]1CC#N | 73
C=CC(=O)N1CC2(C1)CN(c1nc(OC[C@@H]3CCCN3C)nc3c1CN(C1CCc4ccccc41)C3)CCO2 (some centres unmarked) | 18

What value of measured CAF (10 minutes/60 minutes) at 10 micromolar: 10 minutes is listed for `C=C(F)C(=O)N1CCN(c2nc(OC[C@@H]3CCCN3C)nc3c2CN(Cc2cc(Cl)ccc2C(F)(F)F)C3)C[C@@H]1CC#N` ?
3

Would you kindly share the measured CAF (10 minutes/60 minutes) at 10 micromolar: 10 minutes for `C=CC(=O)N1CCN(c2nc(OC[C@@H]3CCCN3C)nc3c2CN(Cc2cc(F)ccc2C)C3)[C@@H](C)C1` ?
0

What does the data say about its CAF (10 minutes/60 minutes) at 10 micromolar: 10 minutes? Entry: `C=CC(=O)N1CCN(c2nc(OC[C@@H]3CCCN3C)nc3c2CN(Cc2ccccc2CC(F)(F)F)C3)C[C@@H]1CC#N`
77

Request the reported CAF (10 minutes/60 minutes) at 10 micromolar: 10 minutes associated with C=CC(=O)N1CCN(c2nc(OC[C@@H]3CCCN3C)nc3c2CN(C2CCc4ccccc42)C3)[C@H](C(N)=O)C1 (some centres unmarked)
7

Requested field: CAF (10 minutes/60 minutes) at 10 micromolar: 10 minutes. Item: `C=CC(=O)N1CCN(c2nc(OC[C@@H]3CCCN3C)nc3c2CN(Cc2c(Cl)ccc4c2CCCO4)C3)C[C@@H]1CC#N`
49

Quick check: CAF (10 minutes/60 minutes) at 10 micromolar: 10 minutes of `C=CC(=O)N1CCN(c2nc(OC[C@@H]3CCCN3C)nc3c2CN(Cc2cccc(F)c2)C3)C[C@@H]1CC#N` ?
56
